Target: MDMX (Homo sapiens, UniProt O15151)
Sequence (O15151 1-125): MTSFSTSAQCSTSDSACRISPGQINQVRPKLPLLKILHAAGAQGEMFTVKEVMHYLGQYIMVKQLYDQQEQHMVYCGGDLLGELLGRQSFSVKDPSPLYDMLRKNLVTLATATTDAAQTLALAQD
Assay: Competitive fluorescence polarization assay for MDMX
Type: binding
Settings: competitive FP assay, read-out: Ki (MDMX)
Where a SMILES comes first, the peptide text is derived from it. Bridges are numbered along the chain shown (N, C = ends). [ ]: non-standard residue; d: D form. R8 = C=CCCCCCC[C@@](C)(N)C(=O)O; S5 = C=CCCC[C@](C)(N)C(=O)O; Aib = CC(C)(N)C(=O)O
property.name: Ki

## Task State, in one line, measured Ki of CC(=O)N[C@@H](CC(C)C)C(=O)N[C@H](C(=O)N[C@@H](Cc1ccccc1)C(=O)N[C@]1(C)CCCCCCC=CCCC[C@@](C)(C(=O)N[C@@H](CO)C(=O)N[C@@H](C)C(=O)NC(C)(C)C(N)=O)NC(=O)[C@H](CC(C)C)NC(=O)[C@H](CCC(N)=O)NC(=O)[C@H](C)NC(=O)[C@H](Cc2c[nH]c3ccccc23)NC(=O)[C@H](Cc2ccc(O)cc2)NC(=O)[C@H](C)NC1=O)[C@@H](C)O [compound 10] (Ac-LTF[R8]AYWAQL[S5]SA[Aib]-NH2; staple 4-11)
## Result 10 to 100 nM
